Source of measurements: paper PMC4118284

Experiment: clinical
Conditions: human, plasma, intravenous, Tmax, Mean ± SD, Sequential midostaurin n = 13; cycle 1, day 1
READOUT NAME: Tmax
In your response, the unit should come after the numeric value.

IN: Entry COc1cccc2c1C(=O)c1c(O)c3c(c(O)c1C2=O)C[C@@](O)(C(C)=O)C[C@@H]3O[C@H]1C[C@H](N)[C@H](O)[C@H](C)O1 needs its Tmax filled in; supply it.
OUT: 36 min

* * *

Assay: clinical
Conditions: human, plasma, intravenous, Cmax, Median, Concomitant midostaurin n = 13; cycle 1, day 1
READOUT NAME: Cmax (ng/mL)
Give your result in ng/mL as a bare value.

IN: Return Cmax for the following compound: COc1cccc2c1C(=O)c1c(O)c3c(c(O)c1C2=O)C[C@@](O)(C(C)=O)C[C@@H]3O[C@H]1C[C@H](N)[C@H](O)[C@H](C)O1 [daunorubicin]
OUT: 89
